FYI, the data here is from the supplement of paper PMC10065799.

target: Grb2 SH2 (UniProt P62993); test: SH2 binding enrichment of the phosphorylated peptide, bacterial display (enrichment ratio); higher = better substrate or ligand; peptides without Tyr show the background
Sequence (P62993 whole entry, looked up): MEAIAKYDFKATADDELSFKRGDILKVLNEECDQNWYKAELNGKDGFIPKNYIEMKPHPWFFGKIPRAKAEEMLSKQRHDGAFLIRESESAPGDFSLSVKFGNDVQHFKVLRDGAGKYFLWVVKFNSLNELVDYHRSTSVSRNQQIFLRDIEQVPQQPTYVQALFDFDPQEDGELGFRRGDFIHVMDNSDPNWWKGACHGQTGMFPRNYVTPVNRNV
I would appreciate it if you labelled entries True when SH2 binding enrichment is 0.9 or higher, otherwise False.

## Task # bool: SH2 binding enrichment of EERNTYVNTTL [TEK_Y1102_K1100N] >= 0.9
## Result True

====

target: c-Src SH2; assay: SH2 binding enrichment of the phosphorylated peptide, bacterial display (enrichment ratio); higher = better substrate or ligand; peptides without Tyr show the background
endpoint name: SH2 binding enrichment
Returns: the value as a bare number; no unit string appended.

Please review the following examples before continuing.
                      sequence_code           endpoint_name    val
0   SNFRAYATEPQ [TNNI3_Y29_H34Q_YF]  SH2 binding enrichment  0.419
1    RESVSYLFSHV [PRPS1_Y311_G306R]  SH2 binding enrichment  0.654
2      IHTEFYDGLFP [BCR_Y561_K558T]  SH2 binding enrichment   0.63
3     DTQNSYRCATS [TSC1_Y304_G305R]  SH2 binding enrichment  0.554
4  YSIAQYCCRMG [LRRK2_Y2023_G2019S]  SH2 binding enrichment   2.36
5        RALRHYFKLNI [ETV6_Y401_YF]  SH2 binding enrichment   1.66
6      EKRDAYVSCLN [GSR_Y150_R153C]  SH2 binding enrichment  0.878
7     DAHFTYSRYPW [LY75_Y888_D884A]  SH2 binding enrichment   0.51
8     HAVYVCDICHV [TWNK_Y508_Y508C]  SH2 binding enrichment   1.28
9      ESAAIYNPVIY [RHO_Y301_K296E]  SH2 binding enrichment  0.464

## Task Could you share which SH2 binding enrichment value was measured for LIFTNYEAGKD [GSTP1_Y112_YF] ?
## Result 0.499

## Task Moving on to VMAALYGRLFE [BTD_Y536_T532M_YF]
## Result 1.18

## Task Let us now turn to CTTIHYNFMCF [TP53_Y234_N239Y_YF]
## Result 1.58

====

system: Fer (mouse); experiment: phosphorylation enrichment, bacterial display (enrichment ratio); higher = better substrate or ligand; peptides without Tyr show the background
endpoint name: phosphorylation enrichment
Provide a numeric answer; units are not to be included.

Known phosphorylation enrichment results, listed for orientation:
>>> print(df.to_string())
                     sequence_code  target_or_test_system    val
0   RESVSYLFSHV [PRPS1_Y311_G306R]            Fer (mouse)  0.479
1  SNFRAYATEPQ [TNNI3_Y29_H34Q_YF]            Fer (mouse)  0.442

## Task phosphorylation enrichment for KANEFYPVVLI [ADAMTS18_Y765_YF] ?
## Result 0.82

## Task Can you check NRKGKYFNVER [ANAPC4_Y469] next?
## Result 0.351

## Task Try this sequence next: RQLEIYRASRP [ERCC4_Y594]
## Result 0.427

## Task # iterate: GVASDYKCIDP [VPS13B_Y1991]
## Result 0.587

## Task Also check SVTCTYPPALN [TP53_Y126_S127P]
## Result 0.473

====

tested on: c-Src; experiment: phosphorylation enrichment, bacterial display (enrichment ratio); higher = better substrate or ligand; peptides without Tyr show the background
Overview of reported phosphorylation enrichment across a group of sequences:
Give the figure only, with no unit attached.

Worked examples follow.
                      sequence_code               endpoint_name    val
0         NRNVRYLTLDI [AKR1C2_Y305]  phosphorylation enrichment  0.441
1     VLICAYLLHRG [PTEN_Y138_M134L]  phosphorylation enrichment  0.516
2   EQLLDYTRTVQ [INPP5E_Y439_R435Q]  phosphorylation enrichment  0.438
3      EFSNQYKATIG [RAB7A_Y37_K32E]  phosphorylation enrichment  0.311
4    SGDINYGQFAQ [PLCG1_Y210_T209N]  phosphorylation enrichment  0.647
5          LKLIQYHLTQQ [AKAP4_Y554]  phosphorylation enrichment  0.599
6     MSLPGYKLVTG [GJA1_Y286_P283L]  phosphorylation enrichment  0.353
7     QEKKGYFEDRC [GLUL_Y336_R341C]  phosphorylation enrichment  0.613
8  CTTIHFNFMCN [TP53_Y234_Y234F_YF]  phosphorylation enrichment  0.507
9           SWSTSYSGYRY [NKAPL_Y91]  phosphorylation enrichment    1.7

Turning now to a further sequence:
## Task Give phosphorylation enrichment (c-Src) of the following sequence: NLPGGYSGSVK [MCPH1_Y606]
## Result 0.46

====

We begin with a simple list: items and their reported phosphorylation enrichment.
molecular target: MERTK (UniProt Q12866); test: phosphorylation enrichment, bacterial display (enrichment ratio); higher = better substrate or ligand; peptides without Tyr show the background
Sequence (Q12866 whole entry, looked up): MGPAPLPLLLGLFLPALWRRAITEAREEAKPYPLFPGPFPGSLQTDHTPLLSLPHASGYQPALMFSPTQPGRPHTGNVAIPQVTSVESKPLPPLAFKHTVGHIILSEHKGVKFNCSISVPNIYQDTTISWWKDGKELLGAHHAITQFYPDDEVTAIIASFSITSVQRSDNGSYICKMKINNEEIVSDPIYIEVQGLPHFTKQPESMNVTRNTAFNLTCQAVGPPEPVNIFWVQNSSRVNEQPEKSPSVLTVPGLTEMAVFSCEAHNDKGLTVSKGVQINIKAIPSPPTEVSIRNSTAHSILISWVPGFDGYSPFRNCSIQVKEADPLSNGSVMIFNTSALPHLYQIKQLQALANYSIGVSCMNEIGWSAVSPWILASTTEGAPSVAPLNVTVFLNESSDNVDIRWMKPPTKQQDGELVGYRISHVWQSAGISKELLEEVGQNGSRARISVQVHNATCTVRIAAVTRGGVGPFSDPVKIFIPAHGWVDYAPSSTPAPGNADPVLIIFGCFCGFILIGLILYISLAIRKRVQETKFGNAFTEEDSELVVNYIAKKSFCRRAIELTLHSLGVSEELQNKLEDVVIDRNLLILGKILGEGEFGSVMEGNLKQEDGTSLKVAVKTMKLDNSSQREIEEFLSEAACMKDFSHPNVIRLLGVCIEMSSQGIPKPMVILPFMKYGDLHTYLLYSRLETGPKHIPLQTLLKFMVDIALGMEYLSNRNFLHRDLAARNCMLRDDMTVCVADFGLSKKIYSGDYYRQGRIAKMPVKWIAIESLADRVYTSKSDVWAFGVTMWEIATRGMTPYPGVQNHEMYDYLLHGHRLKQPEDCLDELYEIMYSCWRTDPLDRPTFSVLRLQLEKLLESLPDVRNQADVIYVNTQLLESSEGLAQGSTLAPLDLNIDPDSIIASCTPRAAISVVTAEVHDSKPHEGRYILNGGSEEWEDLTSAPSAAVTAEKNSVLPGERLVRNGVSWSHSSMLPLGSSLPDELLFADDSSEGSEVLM

                    sequence_code    val
0  DLDLTSIFPNI [PTEN_Y27_Y27S_YF]  0.447
1  EQDRAYLEGTC [HLA-C_Y183_L180D]  0.454

## Task # get_value(readout= phosphorylation enrichment, system= MERTK (UniProt Q12866)) for VVKTVYSLQPP [KNSTRN_Y87]
## Result 2.61

## Task Can you check GEDEPYAEPYA [APBA1_Y183_S184A] next?
## Result 0.636

## Task Field entry: GEEIKYMLWLL [OTC_Y55_S60L]
## Result 1.58

====

system: c-Abl (mouse); experiment: phosphorylation enrichment, bacterial display (enrichment ratio); higher = better substrate or ligand; peptides without Tyr show the background
I would appreciate it if you labelled entries t when phosphorylation enrichment is 0.7 or higher, otherwise f.

>>> df
              sequence_code  group_label
0  QMQNPYSRHSS [MUC13_Y501]            f

## Task Could you verify whether the entry LIFTNYEAGKD [GSTP1_Y112_YF] shows phosphorylation enrichment of no less than 0.7?
## Result t

## Task What about this sequence? NMSRIYSTTKV [ACE_Y151_A154T]
## Result f

## Task Check SIKDKYVTVLF [KCNH2_Y611_A614V_YF] too.
## Result f

## Task Here is the next sequence: MSNSAYVKREV [SCN1A_Y1694_F1692S]
## Result f

## Task Can you handle VTRKEYFIFLE [CAMKV_Y95] next?
## Result t

## Task Also need CITIHYNYMCN [TP53_Y234_T230I] , thanks.
## Result f

## Task What do you have for PLDGEYFSLQI [TP53_Y327_T329S] ?
## Result t

## Task Queued: LEEFQYIGELQ [MSH2_Y856_S860L]
## Result t

## Task Cool, now ANRNVYEVEPT [MEGF10_Y1075]
## Result f

## Task Same question, TISPFYCQSLF [CRYAA_Y48_R49C_YF] this time
## Result t

## Task Same question, NLPGGYSGSVK [MCPH1_Y606] this time
## Result t

## Task What about RIDRKYKKVRF [F8_Y442_G439D] ?
## Result t

====

molecular target: EPHB2 (UniProt P29323); assay: phosphorylation enrichment, bacterial display (enrichment ratio); higher = better substrate or ligand; peptides without Tyr show the background
Sequence (P29323 whole entry, looked up): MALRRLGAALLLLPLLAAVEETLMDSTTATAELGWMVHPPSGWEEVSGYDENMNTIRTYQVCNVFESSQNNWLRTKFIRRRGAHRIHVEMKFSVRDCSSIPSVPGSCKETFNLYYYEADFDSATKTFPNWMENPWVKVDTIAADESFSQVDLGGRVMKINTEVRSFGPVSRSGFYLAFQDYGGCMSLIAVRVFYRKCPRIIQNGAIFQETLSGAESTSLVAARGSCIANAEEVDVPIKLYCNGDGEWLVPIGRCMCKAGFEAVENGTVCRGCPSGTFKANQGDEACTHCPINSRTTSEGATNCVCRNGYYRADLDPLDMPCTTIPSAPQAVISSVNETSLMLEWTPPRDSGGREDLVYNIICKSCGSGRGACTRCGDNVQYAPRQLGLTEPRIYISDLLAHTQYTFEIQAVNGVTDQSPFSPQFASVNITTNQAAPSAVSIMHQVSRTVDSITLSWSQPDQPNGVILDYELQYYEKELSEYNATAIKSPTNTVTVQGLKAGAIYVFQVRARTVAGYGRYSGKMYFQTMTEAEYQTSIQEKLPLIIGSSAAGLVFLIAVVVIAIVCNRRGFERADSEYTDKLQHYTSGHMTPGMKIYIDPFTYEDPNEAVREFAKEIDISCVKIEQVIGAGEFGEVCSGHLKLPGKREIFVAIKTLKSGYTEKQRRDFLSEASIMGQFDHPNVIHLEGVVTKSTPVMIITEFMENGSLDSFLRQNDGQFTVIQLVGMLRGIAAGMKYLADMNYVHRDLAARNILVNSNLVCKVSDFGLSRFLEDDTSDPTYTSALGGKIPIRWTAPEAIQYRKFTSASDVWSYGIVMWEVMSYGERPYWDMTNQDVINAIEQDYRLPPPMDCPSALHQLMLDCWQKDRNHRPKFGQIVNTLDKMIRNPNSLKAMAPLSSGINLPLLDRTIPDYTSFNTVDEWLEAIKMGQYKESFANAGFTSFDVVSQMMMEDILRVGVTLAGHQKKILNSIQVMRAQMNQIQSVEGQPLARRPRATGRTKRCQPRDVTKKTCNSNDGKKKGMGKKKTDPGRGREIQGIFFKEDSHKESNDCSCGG
Outcome: Satisfied for phosphorylation enrichment of at least 0.5; Not satisfied for anything lower.

>>> df
            sequence_code  group_label
0             TENAGYFFRVS    Satisfied
1   YHRQLYHKCTH [F12_Y58]    Satisfied
2  EELLHYAIVTP [POC5_Y37]    Satisfied

Shifting focus to the sequence that follows.
## Task Check if phosphorylation enrichment >= 0.5 (inclusive). Item: RAHARYCADAR [ACOT4_Y52]
## Result Satisfied

====

target: Jak2 (UniProt O60674); test: phosphorylation enrichment, bacterial display (enrichment ratio); higher = better substrate or ligand; peptides without Tyr show the background
Sequence (O60674 whole entry, looked up): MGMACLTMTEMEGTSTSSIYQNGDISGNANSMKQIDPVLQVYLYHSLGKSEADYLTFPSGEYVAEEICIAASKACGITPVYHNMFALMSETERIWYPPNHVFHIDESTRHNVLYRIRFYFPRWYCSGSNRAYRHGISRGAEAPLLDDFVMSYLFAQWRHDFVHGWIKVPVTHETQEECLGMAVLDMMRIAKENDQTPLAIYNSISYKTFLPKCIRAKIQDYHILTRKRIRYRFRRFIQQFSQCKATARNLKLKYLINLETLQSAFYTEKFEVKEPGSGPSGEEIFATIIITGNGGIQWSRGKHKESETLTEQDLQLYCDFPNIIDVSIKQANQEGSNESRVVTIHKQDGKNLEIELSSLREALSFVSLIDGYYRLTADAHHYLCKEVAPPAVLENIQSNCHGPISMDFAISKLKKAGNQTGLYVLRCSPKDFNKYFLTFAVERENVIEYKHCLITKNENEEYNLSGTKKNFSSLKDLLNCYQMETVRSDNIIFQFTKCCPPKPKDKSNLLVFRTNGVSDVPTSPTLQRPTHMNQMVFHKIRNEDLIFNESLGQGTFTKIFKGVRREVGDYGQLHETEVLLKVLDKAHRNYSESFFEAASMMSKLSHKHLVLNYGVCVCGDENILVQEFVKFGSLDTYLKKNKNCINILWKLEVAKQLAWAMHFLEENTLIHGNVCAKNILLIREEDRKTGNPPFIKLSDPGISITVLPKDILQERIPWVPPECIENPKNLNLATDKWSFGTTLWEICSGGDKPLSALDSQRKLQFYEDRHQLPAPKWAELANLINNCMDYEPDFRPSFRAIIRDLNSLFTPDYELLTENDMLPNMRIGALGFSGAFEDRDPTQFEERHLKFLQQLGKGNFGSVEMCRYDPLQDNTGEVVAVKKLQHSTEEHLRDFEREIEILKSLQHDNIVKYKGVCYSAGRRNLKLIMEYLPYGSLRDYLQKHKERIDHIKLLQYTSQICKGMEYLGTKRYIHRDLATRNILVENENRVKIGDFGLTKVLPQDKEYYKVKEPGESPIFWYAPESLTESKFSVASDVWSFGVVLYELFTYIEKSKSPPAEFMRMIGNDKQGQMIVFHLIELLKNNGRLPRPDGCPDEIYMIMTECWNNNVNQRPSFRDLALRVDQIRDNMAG
Binary call on phosphorylation enrichment: 1.0 from 0.7 upward, 0.0 beneath that.

Solved cases below.
>>> df
                    sequence_code  group_label
0      EVESPYEVHDY [GIGYF2_Y1168]          1.0
1  KMKGDYYRSLA [YWHAG_Y130_Y133S]          0.0

## Task Could you tell me if the measured phosphorylation enrichment of TINPIHEHVGY [CHN1_Y143_Y143H] reaches 0.7 or more?
## Result 1.0

## Task Continue with `GFIISYREEEQ`
## Result 1.0

## Task And KANEFYPVVLI [ADAMTS18_Y765_YF] ?
## Result 1.0

## Task // query: DTQNSYRCATS [TSC1_Y304_G305R]
## Result 0.0

## Task Param item: LITLVYGCSRQ [TMPRSS6_Y290_S288L]
## Result 1.0

## Task Moving on to the next sequence: ACCLLYRGDVV [TUBA4A_Y319]
## Result 1.0

## Task Please give the result for ANNPLYKEATP [ITGB3_Y773_S778P] too.
## Result 0.0

## Task Moving on to the next sequence: EELLHYAIVTP [POC5_Y37]
## Result 1.0

## Task KVGPGYLGSGG [RET_Y826] , same question.
## Result 0.0
